test system: GP2d cells (KRAS G12D); test: Cell-based pERK HTRF assay in GP2d cell (Biological Example 2); conditions: GP2d, GP2d (KRAS G12D) cells, pERK HTRF; class symbols
pIC50: −log10 of the molar value.
Measured pIC50 of individual entries

COMPOUND	pIC50
CCN(c1nc(OC[C@@]23CCCN2C[C@H](F)C3)nc2c(F)c(-c3ccc(F)c4sc(N)c(C#N)c34)c(C(F)(F)F)cc12)[C@H]1CCN(C(=O)c2cnsc2)C1 (atropisomer, axis not shown)	> 7.00
CN(C)C(=O)N1CC[C@H]2[C@@H]1CN2c1nc(OC[C@@]23CCCN2C[C@H](F)C3)nc2c(F)c(-c3ccc(F)c4sc(N)c(C#N)c34)c(C(F)(F)F)cc12 (atropisomer, axis not shown)	6.00 to 7.00

Task: Input CCN(c1nc(OC[C@@]23CCCN2C[C@H](F)C3)nc2c(F)c(-c3ccc(F)c4sc(N)c(C#N)c34)c(C(F)(F)F)cc12)[C@H]1C[C@@H](COC)N(C(=O)C2CC2)C1 (atropisomer, axis not shown) , output reported pIC50.
Result: > 7.00

Task: Input CCN(c1nc(OC[C@@]23CCCN2C[C@H](F)C3)nc2c(F)c(-c3ccc(F)c4sc(N)c(C#N)c34)c(C(F)(F)F)cc12)[C@H]1CCN(C(=O)N2CC(C#N)C2)C1 (atropisomer, axis not shown) , output reported pIC50.
Result: > 7.00

====

target: Avi-KRAS G12C (2-169) GTP/RAF1 RBD-3xFLAG (51-131) (Homo sapiens, UniProt P01116, G12C); construct: Avi-KRAS G12C (2-169); test: Raf1-KRAS G12C-GTP disruption HTRF assay (Biological Example 3); format: binding; details: KRAS G12C, GTP-loaded
Sequence (P01116 2-169 isoform P01116-2 G12C): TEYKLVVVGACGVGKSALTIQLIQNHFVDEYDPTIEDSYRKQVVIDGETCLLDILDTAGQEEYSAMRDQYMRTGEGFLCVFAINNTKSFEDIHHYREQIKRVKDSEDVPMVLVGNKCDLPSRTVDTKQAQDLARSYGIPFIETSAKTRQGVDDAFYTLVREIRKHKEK
EXPERIMENTAL ENDPOINT: IC50

Consider the reported IC50 for these compounds:
COMPOUND	VALUE MEASURED
CCN(c1nc(OCC23CCCN2CC(F)C3)nc2c(F)c(-c3ccc(F)c4sc(N)c(C#N)c34)c(C(F)(F)F)cc12)C1CCN(C(=O)c2nc(C)ns2)C1 (stereo not shown)	100 to 1000 nM
CCN(c1nc(OC[C@@]23CCCN2C[C@H](F)C3)nc2c(F)c(-c3ccc(F)c4sc(N)c(C#N)c34)c(C(F)(F)F)cc12)[C@H]1CCN(C(=O)c2ncoc2C)C1 (atropisomer, axis not shown)	100 to 1000 nM
CN(C)C(=O)N1CC[C@H](N(CCF)c2nc(OC[C@@]34CCCN3C[C@H](F)C4)nc3c(F)c(-c4ccc(F)c5sc(N)c(C#N)c45)c(C(F)(F)F)cc23)C1 (atropisomer, axis not shown)	100 to 1000 nM

Moving on to the next compound.
Task: Input CCN(c1nc(OC[C@@]23CCCN2C[C@H](F)C3)nc2c(F)c(-c3ccc(F)c4sc(N)c(C#N)c34)c(C(F)(F)F)cc12)[C@H]1C[C@H](COC)N(C(=O)[C@@H]2C[C@@H]2F)C1 (atropisomer, axis not shown) , output reported IC50.
Result: 100 to 1000 nM

====

Target: Avi-KRAS G12R (1-169) GppNHp/RAF1 RBD-3xFLAG (52-151) (Homo sapiens, UniProt P01116, G12R)
Construct: Avi-KRAS G12R (1-169)
Sequence (P01116 1-169 isoform P01116-2 G12R): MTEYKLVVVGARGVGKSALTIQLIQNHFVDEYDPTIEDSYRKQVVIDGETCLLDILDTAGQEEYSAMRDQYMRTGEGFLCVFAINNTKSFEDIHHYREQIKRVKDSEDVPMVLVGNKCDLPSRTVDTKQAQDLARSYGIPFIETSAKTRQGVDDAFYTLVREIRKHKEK
Assay: Raf1-KRAS G12R-GppNHP disruption HTRF assay (Biological Example 1)
Assay type: binding
Details: KRAS G12R, GppNHp-loaded; Table 11
Procedure: A protein:protein interaction (PPI) Homogeneous Time Resolved Fluorescence (HTRF) assay was used to determine the effectiveness of compounds of the present disclosure in disrupting KRAS protein and effector RAF1 binding. The assay buffer included: 50 mM Tris pH 7.5, 100 mM NaCl, 5 mM MgCl2, 0.1% BSA, 0.01% Tween, and 10% DMSO. The bead buffer included: 50 mM Tris pH 7.5, and 0.01% Tween 20. […] Data was reported as percentage of activity, with DMSO as 100%. Data was plotted and analyzed using Prism 8.
Measured IC50 of individual entries

Task: Input "C[C@H](O)CN(C)c1nc(OC[C@@]23CCCN2C[C@H](F)C3)nc2c(F)c(-c3ccc(F)c4sc(N)c(C#N)c34)c(C(F)(F)F)cc12" , output reported IC50.
Result: 100 to 1000 nM
